The following molecules are listed with their measured pIC50 values.
- TGT: cellular PARG (Homo sapiens)
- Construct: endogenous in cells
- Sequence (Q86W56 whole entry): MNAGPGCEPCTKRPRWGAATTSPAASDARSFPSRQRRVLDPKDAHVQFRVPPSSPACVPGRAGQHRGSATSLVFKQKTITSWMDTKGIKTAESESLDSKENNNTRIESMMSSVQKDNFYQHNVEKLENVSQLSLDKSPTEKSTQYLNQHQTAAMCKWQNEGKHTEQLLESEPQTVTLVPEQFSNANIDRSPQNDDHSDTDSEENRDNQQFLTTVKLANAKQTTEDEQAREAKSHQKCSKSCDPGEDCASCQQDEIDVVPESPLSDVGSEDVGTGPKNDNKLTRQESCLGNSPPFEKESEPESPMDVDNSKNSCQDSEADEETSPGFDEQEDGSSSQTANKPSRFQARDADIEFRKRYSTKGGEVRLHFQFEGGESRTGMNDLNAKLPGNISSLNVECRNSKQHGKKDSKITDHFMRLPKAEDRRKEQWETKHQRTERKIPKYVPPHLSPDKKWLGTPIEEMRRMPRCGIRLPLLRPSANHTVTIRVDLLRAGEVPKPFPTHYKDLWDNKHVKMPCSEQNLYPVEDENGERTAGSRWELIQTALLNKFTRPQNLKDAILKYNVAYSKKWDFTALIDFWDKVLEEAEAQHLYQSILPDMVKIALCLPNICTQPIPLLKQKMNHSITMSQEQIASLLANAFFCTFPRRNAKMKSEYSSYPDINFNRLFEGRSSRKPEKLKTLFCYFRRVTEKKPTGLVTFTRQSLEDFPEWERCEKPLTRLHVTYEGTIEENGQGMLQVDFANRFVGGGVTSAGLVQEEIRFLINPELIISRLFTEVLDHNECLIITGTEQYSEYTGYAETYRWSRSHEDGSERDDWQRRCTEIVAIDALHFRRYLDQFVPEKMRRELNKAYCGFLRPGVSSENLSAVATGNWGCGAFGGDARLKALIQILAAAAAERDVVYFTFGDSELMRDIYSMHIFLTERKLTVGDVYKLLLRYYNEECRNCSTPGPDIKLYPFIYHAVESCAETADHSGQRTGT
- ASSAY_COMMENT: Nuclear PAR accumulation assay (immunofluorescence high-content imaging, MMS-treated HeLa cells)
- CONDITION_CONTEXT: 1 hour compound then MMS 50 μg/mL for an additional hour
pIC50: −log10 of the molar value.
QUANTITY_KIND: pIC50

molecule=CSCC#C[C@@H]1CN=C2N(Cc3cnn(C)c3)C(=O)c3cc(S(=O)(=O)NC4(C)CC4)ccc3N21 tgt="cellular PARG (Homo sapiens)" quantity_kind=pIC50 value="> 7.00"
molecule=Cn1cc(CN2C(=O)c3cc(S(=O)(=O)NC4(C)CC4)ccc3N3C2=NC[C@H]3COC2CC2)cn1 tgt="cellular PARG (Homo sapiens)" quantity_kind=pIC50 value="> 7.00"
molecule=Cn1cc(CN2C(=O)c3cc(S(=O)(=O)NC4(C)CC4)ccc3N3C2=N[C@H]2CNCC[C@H]23)cn1 tgt="cellular PARG (Homo sapiens)" quantity_kind=pIC50 value="5.00 to 6.00"
molecule=[2H]C([2H])(c1cnn(C)c1)N1C(=O)c2cc(S(=O)(=O)NC3(C)CC3)ccc2N2C1=NC[C@H]2C#CC1=CCOCC1 tgt="cellular PARG (Homo sapiens)" quantity_kind=pIC50 value="> 7.00"
molecule="[2H]C([2H])(c1cnn(C)c1)N1C(=O)c2cc(S(=O)(=O)NC3(C)CC3)ccc2N2C1=NCC21CC(CN(C)C)C1 (stereo not shown)" tgt="cellular PARG (Homo sapiens)" quantity_kind=pIC50 value="6.00 to 7.00"
molecule=C[C@@H]1CN=C2N(Cc3cnn(C)c3)C(=O)c3cc(S(=O)(=O)NC4(C)CC4)cc(C4CCN(C)CC4)c3N21 tgt="cellular PARG (Homo sapiens)" quantity_kind=pIC50 value="6.00 to 7.00"
molecule=Cc1cc(C#C[C@@H]2CN=C3N(Cc4cnn(C)c4)C(=O)c4cc(S(=O)(=O)NC5(C)CC5)ccc4N32)ccn1 tgt="cellular PARG (Homo sapiens)" quantity_kind=pIC50 value="> 7.00"
molecule=Cn1cc(CN2C(=O)c3cc(S(=O)(=O)NC4(C)CC4)ccc3N3C2=NC[C@H]3C2CCCC2)cn1 tgt="cellular PARG (Homo sapiens)" quantity_kind=pIC50 value="> 7.00"
molecule=Cn1cc(CN2C(=O)c3cc(S(=O)(=O)NC4(C)CC4)cc(C4=CCOCC4)c3N3CC(C)(C)N=C23)cn1 tgt="cellular PARG (Homo sapiens)" quantity_kind=pIC50 value="> 7.00"
molecule="Cn1cc(CN2C(=O)c3cc(S(=O)(=O)NC4(C)CC4)ccc3N3C2=NCC3COc2ccc(C#N)cc2)cn1 (stereo not shown)" tgt="cellular PARG (Homo sapiens)" quantity_kind=pIC50 value="6.00 to 7.00"
molecule=CN(C)CC#C[C@@H]1CN=C2N(C)C(=O)c3cc(S(=O)(=O)NC4(C)CC4)cc(Cl)c3N21 tgt="cellular PARG (Homo sapiens)" quantity_kind=pIC50 value="> 7.00"
molecule=[2H]C([2H])(c1cnn(C)c1)N1C(=O)c2cc(S(=O)(=O)NC3(C)CC3)c(NCc3ccc(OC)nc3)cc2N2C1=N[C@H]1CCC[C@H]12 tgt="cellular PARG (Homo sapiens)" quantity_kind=pIC50 value="> 7.00"
molecule=[2H]C([2H])(c1cnn(C)c1)N1C(=O)c2cc(S(=O)(=O)NC3(C)CC3)cc(Cl)c2N2C1=NC[C@H]2C#CC1CC1 tgt="cellular PARG (Homo sapiens)" quantity_kind=pIC50 value="> 7.00"
molecule=CC#C[C@@H]1CN=C2N(C)C(=O)c3cc(S(=O)(=O)NC4(C)CC4)cc(Br)c3N21 tgt="cellular PARG (Homo sapiens)" quantity_kind=pIC50 value="> 7.00"
molecule=CN(C)C1([C@@H]2CN=C3N(Cc4cnn(C)c4)C(=O)c4cc(S(=O)(=O)NC5(C)CC5)ccc4N32)CC1 tgt="cellular PARG (Homo sapiens)" quantity_kind=pIC50 value="> 7.00"
molecule=CN1CCC[C@@H]1C#C[C@@H]1CN=C2N(Cc3cnn(C)c3)C(=O)c3cc(S(=O)(=O)NC4(C)CC4)ccc3N21 tgt="cellular PARG (Homo sapiens)" quantity_kind=pIC50 value="> 7.00"
molecule="Cc1cccc(C#CC2CN=C3N(C)C(=O)c4cc(S(=O)(=O)NC5(C)CC5)ccc4N32)n1 (stereo not shown)" tgt="cellular PARG (Homo sapiens)" quantity_kind=pIC50 value="> 7.00"
molecule=[2H]C([2H])(c1cnn(C)c1)N1C(=O)c2cc(S(=O)(=O)NC3(C)CC3)ccc2N2C1=NC[C@H]2C#CC1(N(C)C)CC1 tgt="cellular PARG (Homo sapiens)" quantity_kind=pIC50 value="> 7.00"
molecule="[2H]C([2H])([2H])N1C(=O)c2cc(S(=O)(=O)NC3(C)CC3)ccc2N2C1=NCC2C#Cc1cnc2cccnn12 (stereo not shown)" tgt="cellular PARG (Homo sapiens)" quantity_kind=pIC50 value="> 7.00"
molecule=Cn1cc(CN2C(=O)c3cc(S(=O)(=O)NC4(C)CC4)ccc3N3C2=NC[C@@H]3C2CCCC2)cn1 tgt="cellular PARG (Homo sapiens)" quantity_kind=pIC50 value="6.00 to 7.00"
molecule=Cn1cc(CN2C(=O)c3cc(S(=O)(=O)NC4(C)CC4)cc(C4=CCCC4)c3N3CC(C)(C)N=C23)cn1 tgt="cellular PARG (Homo sapiens)" quantity_kind=pIC50 value="> 7.00"
molecule=CN(C)CC#C[C@@H]1CN=C2N(Cc3cnn(C)c3)C(=O)c3cc(S(=O)(=O)NC4(C)CC4)cc(Cl)c3N21 tgt="cellular PARG (Homo sapiens)" quantity_kind=pIC50 value="> 7.00"
